experiment: chemical genetic growth profiling, strain panel (AID 1159580);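 also: tested at 20 µM; growth read once vehicle control cultures reached saturation at 30 °C; 1 = growth at the plate median or of vehicle wells; lower values mean less growth of the strain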; conditions: S. cerevisiae deletion strains, growth OD, locus YMR078C, strain ctf18, hits give low values
Hit rate of the full screen: of about 5,500 compounds, about 2,000 (36%) were called active. Inconclusive results (about 18%) are left out. The list shows a part of the results.
measured attribute: normalized growth
// no unit string in output, number only

Report measured normalized growth; entry is COc1ccc2c(c1)[nH]c1c(C)nccc12
0.976

Report measured normalized growth; entry is CC1(C)S[C@@H]2[C@H](NC(=O)COc3ccccc3)C(=O)N2[C@H]1C(=O)O
1.02

Report measured normalized growth; entry is COc1ccc2ccc(=O)oc2c1CC=C(C)C
0.891

Report measured normalized growth; entry is C[C@H]1C(=O)O[C@@H]2CCN3CC=C(COC(=O)[C@](C)(O)[C@]1(C)O)[C@H]23
0.983

Report measured normalized growth; entry is O=c1cc(-c2ccc(O)cc2)oc2cc(O[C@@H]3O[C@H](CO)[C@@H](O)[C@H](O)[C@H]3O[C@@H]3OC[C@](O)(CO)[C@H]3O)cc(O)c12
0.963

====

assay: chemical genetic growth profiling, strain panel (AID 1159580);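 also: tested at 20 µM; growth read once vehicle control cultures reached saturation at 30 °C; 1 = growth at the plate median or of vehicle wells; lower values mean less growth of the strain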; conditions: S. cerevisiae deletion strains, growth OD, locus YMR205C, strain PFK2, hits give low values
Hit rate of the full screen: of about 5,500 compounds, about 2,000 (36%) were called active. About 18% were inconclusive and are not listed. The list shows a part of the results.
measured attribute: normalized growth
// no unit string in output, number only

Report measured normalized growth; entry is CC1=C(C(=O)O)N2C(=O)[C@@H](NC(=O)[C@H](N)C3=CCC=CC3)C2SC1 (stereo not given in full)
1.04

Report measured normalized growth; entry is COc1c2occc2cc2ccc(=O)oc12
0.941

Report measured normalized growth; entry is O=C(O)c1cc2cc(Cl)ccc2[nH]1
0.956

Report measured normalized growth; entry is COc1cc(OC)c(C(C)=O)c(O)c1C
0.903

Report measured normalized growth; entry is CC(C)=CCC/C(C)=C/COc1ccc2ccc(=O)oc2c1
0.96

Report measured normalized growth; entry is O=c1ccc2cc(O[C@@H]3O[C@H](CO)[C@@H](O)[C@H](O)[C@H]3O)c(O)cc2o1
0.962

Report measured normalized growth; entry is CC(C)=CCOc1c2occc2cc2ccc(=O)oc12
0.817

Report measured normalized growth; entry is COc1cc2ccc(=O)oc2cc1O
1

Report measured normalized growth; entry is CC1(C)S[C@@H]2[C@H](NC(=O)COc3ccccc3)C(=O)N2[C@H]1C(=O)O
0.994

Report measured normalized growth; entry is CC(C)=CCOc1cc2oc(=O)ccc2cc1O
0.934

Report measured normalized growth; entry is COc1ccc2ccc(=O)oc2c1CC=C(C)C
0.659

Report measured normalized growth; entry is CN1Cc2c(N)cccc2C(c2ccccc2)C1 (stereo not given)
1.04

Report measured normalized growth; entry is Cn1nnnc1SCC1=C(C(=O)O)N2C(=O)C(NC(=O)C(OC=O)c3ccccc3)C2SC1 (stereo not given)
1.02

Report measured normalized growth; entry is COc1cc(O)c(C)c(O)c1
1.01

Report measured normalized growth; entry is CCNc1nc(Cl)nc(NC(C)C)n1
1.01

Report measured normalized growth; entry is COc1cc2ccc(=O)oc2c2ccoc12
0.993

Report measured normalized growth; entry is C[C@]12C=CC(=O)C=C1CCC1C2C(=O)C[C@@]2(C)C1CC[C@]2(O)C(=O)CO (stereo not given in full)
0.988

Report measured normalized growth; entry is Cc1cccc(N(C)C(=S)Oc2ccc3ccccc3c2)c1
0.952

Report measured normalized growth; entry is O=C1c2ccccc2C(=O)c2c1ccc(O)c2O
0.423

Report measured normalized growth; entry is Cc1cc(O)c2c(c1O)C(=O)c1c(O)cc(C)c(O)c1C2=O
0.993

Recorded values, source PubChem BioAssay AID1159580.
